system: MEK6; construct: gene MAP2K6; settings: concentration: 1 μM, replicates: in singlicate; n = 1;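 note: KINOMEscan kinase panel screen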
recordedEndpoint: %Inh (%)
Answer in %, number only, no unit symbol.

Some solved entries appear below for comparison.
INSERT INTO assay_data (structureassmiles, unitdescriptor, resultnumber) VALUES
  ('Cl.c1ccc(Cn2cnc3cc(Nc4ncnc5ccccc45)ccc32)cc1', '%', 0),
  ('O=c1cc(N2CCOCC2)nc2n(Cc3ccc(F)c(Cl)c3)ccn12', '%', 14),
  ('COC(=O)c1c(-c2ccccc2)c2cc(C)ccc2c(=O)n1Cc1ccccc1', '%', 10),
  ('Nc1n[nH]c2ncc(-c3ccccc3)cc12', '%', 4),
  ('CCn1c(-c2nonc2N)nc2ccccc21', '%', 0);

Q. Dear colleague, I am looking for the recorded %Inh of the following molecule: "Fc1cccc(CSc2nnc(-c3ccc4c(c3)CCO4)o2)c1"
A. 0

Q. Next molecule: "Cn1c(=O)c(F)c(Nc2ccc(I)cc2F)c2c(=O)n(OC[C@H](O)CO)cnc21"
A. 0

Q. Input "COc1cc2ncn(-c3cc(OCc4ccc(S(C)(=O)=O)cc4)c(C(N)=O)s3)c2cc1OC"
A. 0
